Biological target: Human coagulation factor (F)XI (Homo sapiens)
Construct: Enzyme Research Laboratories (FXIIa) HCXI-150 (FXI); HFXIIa (FXIIa)
Sequence (P03951 19-625): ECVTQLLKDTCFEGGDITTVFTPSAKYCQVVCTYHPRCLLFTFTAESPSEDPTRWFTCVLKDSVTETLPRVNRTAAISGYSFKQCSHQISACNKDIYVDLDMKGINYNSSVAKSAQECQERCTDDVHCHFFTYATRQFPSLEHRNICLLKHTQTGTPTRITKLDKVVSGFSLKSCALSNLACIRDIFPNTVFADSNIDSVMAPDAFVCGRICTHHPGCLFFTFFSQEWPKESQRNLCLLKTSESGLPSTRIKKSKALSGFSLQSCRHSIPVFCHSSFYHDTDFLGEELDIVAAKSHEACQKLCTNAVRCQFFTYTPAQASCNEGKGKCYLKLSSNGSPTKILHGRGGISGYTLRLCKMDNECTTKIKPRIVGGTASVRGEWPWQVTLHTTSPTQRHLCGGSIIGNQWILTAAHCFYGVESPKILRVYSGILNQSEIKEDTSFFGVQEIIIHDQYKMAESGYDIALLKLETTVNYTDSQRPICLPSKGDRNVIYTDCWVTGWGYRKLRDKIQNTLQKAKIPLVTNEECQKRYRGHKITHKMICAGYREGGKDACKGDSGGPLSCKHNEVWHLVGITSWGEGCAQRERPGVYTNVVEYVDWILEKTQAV
Experiment: Inhibition of FXIIa mediated activation of FXI (activation of human Factor XI to XIa by human Factor α-XIIa)
Conditions: human FXI pre-incubated with compound 30 min at 22° C., activation by human FXIIa 60 min, z-GPR-AFC substrate fluorescence, 4 parameter logistic fit; read-out: Inhibition of FXIIa meditated activation of FXI
pEC50: −log10 of the molar value.
measured-attribute: pEC50

>>> df
                                    compound  value_observed
 0  C[C@]1(O)CCN(C(=O)c2cc(C(=O)N3CCCCC3)c3cc(OCc4nc5ccccc5s4)ccc3n2)C1 [Example 61]            6.88
 1  O=C1OCc2cc(COc3ccc4nc(C(=O)N5CCC(n6cccn6)CC5)cc(C(=O)N5CCCCC5)c4c3)ccc21 [Example 19]            7.50
 2  O=C(c1cc(C(=O)N2CCCCC2)c2cc(OCc3nc4ccccc4s3)ccc2n1)N1CC[C@H]2OCCC[C@@H]2C1 [Example 70]            7.40
 3  Cn1nnc2cc(COc3ccc4nc(C(=O)N5CCC(n6cccn6)CC5)cc(C(=O)N5CCCCC5)c4c3)ccc21 [Example 15]            7.63
 4  O=C(c1cc(C(=O)N2CCCCC2)c2cc(OCc3ccc4snnc4c3)ccc2n1)N1CCC(n2cccn2)CC1 [Example 7]            7.71
 5  O=C(c1cc(C(=O)N2CCCCC2)c2cc(OCc3ccc(C(F)(F)F)nc3)ccc2n1)N1CCC(n2cccn2)CC1 [Example 10]            7.66
 6  NC(=O)C1(c2ccccc2)CCN(C(=O)c2cc(C(=O)N3CCCCC3)c3cc(OCc4nc5ccccc5s4)ccc3n2)CC1 [Example 59]            7.22
 7  CC(N1CCN(C(=O)c2cc(C(=O)N3CCCCC3)c3cc(OCc4nc5ccccc5s4)ccc3n2)CC1)C(F)(F)F (centres unmarked) [Example 66]            7.78
 8  COc1cccc(COc2ccc3nc(C(=O)N4CCC(C#N)(c5ccccc5)CC4)cc(C(=O)N4CCCCC4)c3c2)c1 [Example 41]            7.52
 9  N#Cc1cc(Cl)ccc1COc1ccc2nc(C(=O)N3CCC(C#N)(c4ccccc4)CC3)cc(C(=O)N3CCCCC3)c2c1 [Example 27]            7.41
10  O=C1OCc2ccc(COc3ccc4nc(C(=O)N5CCC(n6cccn6)CC5)cc(C(=O)N5CCCCC5)c4c3)cc21 [Example 20]            7.45
11  N#Cc1ccc(COc2ccc3nc(C(=O)N4CCC(C#N)(c5ccccc5)CC4)cc(C(=O)N4CCCCC4)c3c2)cc1 [Example 31]            7.60
12  N#Cc1ccc(COc2ccc3nc(C(=O)N4CCC(n5cccn5)CC4)cc(C(=O)N4CCCCC4)c3c2)cc1F [Example 13]            7.70
13  N#CC1(c2ccccc2)CCN(C(=O)c2cc(C(=O)N3CCCCC3)c3cc(OCc4ccc(C(F)(F)F)cc4)ccc3n2)CC1 [Example 38]            7.31

----------
We begin with a simple list: items and their reported pEC50.
Target: Human coagulation factor (F)XI (Homo sapiens)
Construct: Enzyme Research Laboratories (FXIIa) HCXI-150 (FXI); HFXIIa (FXIIa)
Experiment: Inhibition of FXIIa mediated activation of FXI (activation of human Factor XI to XIa by human Factor α-XIIa)
Settings: human FXI pre-incubated with compound 30 min at 22° C., activation by human FXIIa 60 min, z-GPR-AFC substrate fluorescence, 4 parameter logistic fit; read-out: Inhibition of FXIIa meditated activation of FXI
pEC50: −log10 of the molar value.
measured-attribute: pEC50

>>> print(df.to_string())
                                   compound  measured_attribute  value_observed
0  Cn1ncc2cc(COc3ccc4nc(C(=O)N5CCC(n6cccn6)CC5)cc(C(=O)N5CCCCC5)c4c3)ccc21 [Example 17]               pEC50            7.29
1  N#CC1(n2cccn2)CCN(C(=O)c2cc(C(=O)N3CCCCC3)c3cc(OCc4nc5ccccc5s4)ccc3n2)CC1 [Example 58]               pEC50            7.47
2  O=C(c1cc(C(=O)N2CCCCC2)c2cc(OCc3nc4ccccc4s3)ccc2n1)N1CCC(c2ncc[nH]2)CC1 [Example 74]               pEC50            7.49
3  O=C(c1cc(C(=O)N2CCCCC2)c2cc(OCc3cn4c(F)cccc4n3)ccc2n1)N1CCC(n2cccn2)CC1 [Example 11]               pEC50            7.46
4  O=C(c1cc(C(=O)N2CCCC(F)(F)C2)c2cc(OCc3nc4ccccc4s3)ccc2n1)N1CCC(n2cccn2)CC1 [Example 53]               pEC50            7.20
5  N#CC1(c2ccccc2)CCN(C(=O)c2cc(C(=O)N3CCCCC3)c3cc(OCc4ccc(F)cc4F)ccc3n2)CC1 [Example 43]               pEC50            7.41
